Origin of measurements: patent US20240425523A1

assay target: p-EGFR L858R (BaF3-L858R cells) (Homo sapiens, UniProt P00533, L858R)
Construct: host or cells: BaF3
experiment description: Cell p-EGFR inhibition assay, HTRF, BaF3-L858R cells
Assay type: cell-based
conditions used: 16 h treatment, maximum percentage of pEGFR inhibition
test readout: Imax (%)

Task item: Entry under review: Cc1cc2cc(n1)-c1cnn(C)c1OC[C@H]1CCC(C1)CN1/C(=N/C2=O)Nc2ccc(N3CCN(C4(CO)CCN(c5ccc(C6CCC(=O)NC6=O)nc5C)CC4)CC3)cc21 (stereo partly shown) [Example 114] . Reported Imax (%)?
Reply: 98.4

Task item: Entry under review: Cc1cc2cc(n1)-c1c(C)nn(C)c1OC[C@H]1CC[C@H](C1)CN1/C(=N/C2=O)Nc2ccc(N3CCC(N(C)C4CN(c5cc(F)c([C@H]6CCC(=O)NC6=O)c(F)c5)C4)CC3)cc21 [Example 142] . Reported Imax (%)?
Reply: 97.8

Task item: Entry under review: Cc1cc2cc(n1)-c1c(C)nn(C)c1OC[C@H]1CC[C@H](C1)CN1/C(=N/C2=O)Nc2ccc(N3C[C@@H](C)N(C4CCN(c5cc(F)c([C@H]6CCC(=O)NC6=O)c(F)c5)CC4)C[C@@H]3C)cc21 [Example 200] . Reported Imax (%)?
Reply: 98.42

Task item: Entry under review: Cc1cc2cc(n1)-c1cnn(C)c1OC[C@H]1CCC(C1)CN1/C(=N/C2=O)Nc2ccc(N3CCN([C@@H]4CCN(c5ccc(C6CCC(=O)NC6=O)nc5C)CC4(F)F)CC3)cc21 (stereo partly shown) [Example 105] . Reported Imax (%)?
Reply: 93.9

Task item: Entry under review: Cc1cc2cc(n1)-c1c(C)nn(C)c1OC[C@H]1CC[C@H](C1)CN1/C(=N/C2=O)Nc2ccc(N3C[C@H](C)N(C4CCN(c5cc(F)c([C@H]6CCC(=O)NC6=O)c(F)c5)CC4)C[C@@H]3C)cc21 [Example 197] . Reported Imax (%)?
Reply: 101.23

Task item: Entry under review: Cc1cc2cc(n1)-c1c(C)nn(C)c1OC[C@H]1CC[C@H](C1)CN1/C(=N/C2=O)Nc2ccc(N3CCN(C4CCN(c5cc(F)c([C@H]6CCC(=O)NC6=O)c(F)c5)CC4)C[C@@H]3C)cc21 [Example 195] . Reported Imax (%)?
Reply: 90.34

Task item: Entry under review: Cc1cc2cc(n1)-c1cnn(C)c1OC[C@H]1CCC(C1)CN1/C(=N/C2=O)Nc2ccc(N3CCC(N4CCC(Oc5cc(F)c([C@H]6CCC(=O)NC6=O)c(F)c5)CC4)CC3)cc21 [Example 113] . Reported Imax (%)?
Reply: 94.6

Task item: Entry under review: COC[C@H]1CN(c2ccc3c(c2)N2C[C@@H]4CC[C@H](COc5c(c(C)nn5C)-c5cc(cc(C)n5)C(=O)/N=C/2N3)C4)CCN1C1CCN(c2ccc(OC3CCC(=O)NC3=O)cc2C)CC1 (stereo partly shown) [Example 140] . Reported Imax (%)?
Reply: 96.47

Task item: Entry under review: Cc1cc2cc(n1)-c1c(C)nn(C)c1OC[C@H]1CCC(C1)CN1/C(=N/C2=O)Nc2ccc(N3CCN([C@@H]4CCN(c5cc(F)c(C6CCC(=O)NC6=O)nc5C)C[C@@H]4F)CC3)cc21 (stereo partly shown) [Example 82] . Reported Imax (%)?
Reply: 91.9

Task item: Entry under review: Cc1cc2cc(n1)-c1cnn(C)c1OC[C@H]1CCC(C1)CN1/C(=N/C2=O)Nc2ccc(N3CC4(CCN(C5CCN(c6cc(F)c([C@H]7CCC(=O)NC7=O)c(F)c6)CC5)CC4)C3)cc21 [Example 125] . Reported Imax (%)?
Reply: 98.6
